method: Toxicokinetics, plasma LPM3480392 after intravenous administration
Format: in vivo, Sprague Dawley (SD) rats
condition description: male, Sprague-Dawley, rat, plasma, iv, 0.6 mg/kg/day, 0.6 mg/kg/day iv; 28th dosing day; M; read-out: AUC0–12h
measurement kind: AUC(0-t) (ng·h/mL)
Numbers only here, please. The scale is ng·h/mL.

Prompt: Name the reported AUC(0-t) value associated with the molecule `Fc1ccc([C@]2(CCNCc3cccc(Cl)c3)CCO[C@]3(CCOC3)C2)nc1`
Completion: 366

* * *

method: Toxicokinetics, plasma LPM3480392 after intravenous administration
Type: in vivo, Sprague Dawley (SD) rats
condition description: both sexes, Sprague-Dawley, rat, plasma, iv, 0.6 mg/kg/day, 0.6 mg/kg/day iv; 1st dosing day; F + M; read-out: AUC0–12h
Procedure: Blood samples from animals in LPM3480392 groups were collected at predose and 2 min, 30 min, 1 h and 4 h postdose of the 1st dosing on Days 1 and 28; at 2 min and 4 h postdose of the 2nd dosing on Days 1 and 28; at 2 min, 1 h and 4 h postdose the 3rd dosing on Days 1 and 28. Animals in control group were sampled at predose and 2 min postdose of the 1st dosing on Days 1 and 28. […] TK parameters (AUC, Cmax, Tmax) were calculated by Phoenix WinNonlin (Pharsight) 8.2. […]
measurement kind: AUC(0-t) (ng·h/mL)
Numbers only here, please. The scale is ng·h/mL.

Prompt: Name the reported AUC(0-t) value associated with the compound `Fc1ccc([C@]2(CCNCc3cccc(Cl)c3)CCO[C@]3(CCOC3)C2)nc1`
Completion: 315

* * *

method: Toxicokinetics, plasma LPM3480392 after intravenous administration
Type: in vivo, Sprague Dawley (SD) rats
condition description: male, Sprague-Dawley, rat, plasma, iv, 1.2 mg/kg/day, 1.2 mg/kg/day iv; 1st dosing day; M; read-out: AUC0–12h
measurement kind: AUC(0-t) (ng·h/mL)
Numbers only here, please. The scale is ng·h/mL.

Prompt: Name the reported AUC(0-t) value associated with the compound Fc1ccc([C@]2(CCNCc3cccc(Cl)c3)CCO[C@]3(CCOC3)C2)nc1 [LPM3480392]
Completion: 607

* * *

method: Toxicokinetics, plasma LPM3480392 after intravenous administration
Type: in vivo, Sprague Dawley (SD) rats
condition description: both sexes, Sprague-Dawley, rat, plasma, iv, 2.4 mg/kg/day, 2.4 mg/kg/day iv; 1st dosing day; F + M; read-out: AUC0–12h
Method: Blood samples from animals in LPM3480392 groups were collected at predose and 2 min, 30 min, 1 h and 4 h postdose of the 1st dosing on Days 1 and 28; at 2 min and 4 h postdose of the 2nd dosing on Days 1 and 28; at 2 min, 1 h and 4 h postdose the 3rd dosing on Days 1 and 28. Animals in control group were sampled at predose and 2 min postdose of the 1st dosing on Days 1 and 28. […] TK parameters (AUC, Cmax, Tmax) were calculated by Phoenix WinNonlin (Pharsight) 8.2. […]
measurement kind: AUC(0-t) (ng·h/mL)
Numbers only here, please. The scale is ng·h/mL.

Prompt: Name the reported AUC(0-t) value associated with the molecule `Fc1ccc([C@]2(CCNCc3cccc(Cl)c3)CCO[C@]3(CCOC3)C2)nc1`
Completion: 1250

* * *

method: Toxicokinetics, plasma LPM3480392 after intravenous administration
Type: in vivo, Sprague Dawley (SD) rats
condition description: female, Sprague-Dawley, rat, plasma, intravenous, 0.6 mg/kg/day, 0.6 mg/kg/day iv; 1st dosing day; F; read-out: C2min (The 3rd dosing)
measurement kind: concentration at 2 min
The answer should read as a number with its unit following.

Prompt: Name the reported concentration at 2 min value associated with the compound `Fc1ccc([C@]2(CCNCc3cccc(Cl)c3)CCO[C@]3(CCOC3)C2)nc1`
Completion: 55.5 ng/mL
